Can you tell me composite z-score for the items I'm about to list?
- System: Plasmodium falciparum Sir2 (PF13_0152, Sir2A)
- test-name: pfSir2 binders on small-molecule microarrays, primary screen, biochemical, small-molecule microarray, 635 nm fluorescence (AID 1098);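 also: score merges spot fluorescence intensity with its signal-to-noise ratio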
- particulars: small-molecule microarray binding, fluorescence 635 nm; higher = more signal
Respond numerically, and do not add a unit to the figure.

Ask: Note down composite z-score recorded for `C=CCN1C(=O)[C@]2(O[C@H](CCO)[C@@H]([Si](C)(C)c3ccc(OC)cc3)[C@@H]2C)c2cc(N3C(=O)c4cccc5cccc3c45)ccc21`
Reply: 1.18

Ask: Note down composite z-score recorded for `C=C[C@H](COC(C)=O)N(C(=O)OC(C)(C)C)S(=O)(=O)c1ccc(Br)cc1`
Reply: 0.0995

Ask: Note down composite z-score recorded for `COC(=O)[C@@]1(Cc2ccc(F)cc2)[C@H]2c3cc(C(=O)N(C)C)n(Cc4ccc(S(C)(=O)=O)cc4)c3C[C@H]2CN1C(=O)c1ccccc1`
Reply: 0.46

Ask: Note down composite z-score recorded for C=CCC(OC(C)=O)[C@@H]1[C@@H](N(Cc2ccc(-c3cccc(C(F)(F)F)c3)o2)C(=O)Cc2ccc(F)cc2)c2cc(OCCCO)ccc2N1C(=O)Cc1ccc(OC)cc1 (some centres not stated)
Reply: -0.0392

Ask: Note down composite z-score recorded for `C=C(/C(=C/C[C@@H](OC(C)=O)c1ccc(OCCO)cc1)c1cnc2ccccc2c1)C(C)C`
Reply: 1.2

Ask: Note down composite z-score recorded for `C#CCNC(=O)[C@H](Cc1ccccc1)NC(=O)CCC(=O)O`
Reply: -0.759

Ask: Note down composite z-score recorded for `C=CC[C@]1(C(=O)N2CCCCC2)N=C(c2ccc(OCCCO)cc2)O[C@H]1c1ccccc1`
Reply: 1.25

Ask: Note down composite z-score recorded for `COC(=O)[C@@]1(Cc2ccc(F)cc2)[C@H]2c3cc(C(=O)N(C)C)n(Cc4nc5ccccc5[nH]4)c3C[C@H]2CN1C(=O)c1ccccc1`
Reply: 1.62

Ask: Note down composite z-score recorded for `Cc1ccc(S[C@]2(C(=O)NCCN3CCOCC3)CC(=O)N(Cc3ccccc3)[C@@H]2c2ccc(CO)cc2I)cc1`
Reply: 1.41

Ask: Note down composite z-score recorded for `[N-]=[N+]=Nc1ccccc1C[C@@]1(C(=O)NCCN2CCOCC2)N=C(c2ccc(OCCCO)cc2)O[C@@H]1c1ccccc1`
Reply: 1.57

Ask: Note down composite z-score recorded for `COc1ccc([C@H]2OC[C@@H]3CC4(CC=CC4)C(=O)N32)cc1`
Reply: 0.165

Ask: Note down composite z-score recorded for O=C1OCCC/C=C\[C@H]2OC34C=CCN(Cn5nnc6ccccc65)C(=O)[C@H]3N(CCCCCCO)C(=O)[C@@H]4C12 (some centres not stated)
Reply: 1.53

---

- Tested on: Human papillomavirus type 1a protein E7 (residues 44-93)
- test-name: HPV1a E7 fragment binders on microarrays, primary screen, biochemical, small-molecule microarray, residues 44-93, 635 nm fluorescence (AID 1108);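 also: E7 fragment applied at 1 µg/mL in TBST for 1 h at 4 C; score combines spot fluorescence with its signal to noise ratio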
- particulars: small-molecule microarray binding, fluorescence 635 nm; higher = more signal
Everything with composite z-score lower than -0.2 is Not fulfilled; everything else, including exactly -0.2, is Fulfilled.

Ask: Please tell me: is the compound C=CCC(OC(C)=O)[C@@H]1[C@@H](N(Cc2ccc(-c3cccc(C(F)(F)F)c3)o2)C(=O)c2ccc(-c3ccccc3)cc2)c2cc(OCCCO)ccc2N1C(=O)c1ccc(-c2ccccc2)cc1 (stereo partly specified) at or over -0.2 in terms of composite z-score?
Reply: Fulfilled

Ask: Please tell me: is the compound `CCOC(=O)[C@H]1C/C=C/C[C@H](C(=O)OCC)C(=O)O[C@H]2[C@@H](OC)O[C@H](CO)[C@@H](OC(=O)Nc3ccc(C#N)cc3)[C@@H]2OC1=O` at or over -0.2 in terms of composite z-score?
Reply: Not fulfilled

Ask: Please tell me: is the compound `COc1ccc(CCN2C(=O)[C@@]3(c4ccc([N+](=O)[O-])cc4)CC(=O)N(C4CCCCC4)[C@@H]3c3ccc(CO)cc32)cc1` at or over -0.2 in terms of composite z-score?
Reply: Fulfilled

Ask: Please tell me: is the compound C=CCN(Cc1ccccc1)C(=O)C(c1cccs1)N(CCOCCO)C(=O)/C=C\C(=O)O (stereo unspecified) at or over -0.2 in terms of composite z-score?
Reply: Not fulfilled

Ask: Please tell me: is the compound CN1C(=O)C2C=CC(C(O)c3ccccc3)N(Nc3ccccc3)C2C1=O (stereo unspecified) at or over -0.2 in terms of composite z-score?
Reply: Not fulfilled

Ask: Please tell me: is the compound `COc1ccc([Si](C)(C)[C@H]2[C@H](CC(=O)N3Cc4ccccc4C[C@H]3CO)O[C@@]3(C(=O)N(Cc4ccc(N5CCC5=O)cc4)c4ccccc43)[C@@H]2C)cc1` at or over -0.2 in terms of composite z-score?
Reply: Fulfilled
